B1: LINE1-full (parent)
chain: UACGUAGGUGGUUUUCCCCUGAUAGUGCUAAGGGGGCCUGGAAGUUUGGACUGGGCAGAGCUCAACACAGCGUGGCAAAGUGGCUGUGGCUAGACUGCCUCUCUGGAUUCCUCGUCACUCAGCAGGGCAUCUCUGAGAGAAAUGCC

variants of: B1; experiment: self-cleavage, relative activity (ratio to wild type); higher = more cleavage; in vitro, sequencing; the parent is a self-cleaving ribozyme
Could you please report measured self-cleavage for the items listed next?
One number for each entry.

U81C A92G; 0
A2G A57G; 0.68
G36C U87A; 0.14
U14C A67G; 0.61
G114A A121G; 1.32

I'm hoping you can list self-cleavage for every variant here, please.
1. U5C C128U
2. G32U A67U

Result:
1. 1.53
2. 0.13
